Source: paper PMC12802937

- test system: RNF-MD S4i (D780K in RNF20) (human) (UniProt Q5VTR2)
- assay details: SPR; RNF-MD immobilised on a CM5 chip, intein-WAC flown over; Biacore 8K, 25°C, 20 mM HEPES (pH 7.5), 200 mM sodium chloride, 0.02% Tween 20
measurement kind: pKd
Interpret pKd as the negative base-10 log of the concentration measured in mol/L.

Exercise: Looking for the measured pKd of intein-WAC S4 (R630E) (domain or fragment) HVQGWPADHAEKQASRLREEAHNMGTIHMSEICTELKNLRSLVRVCEIQATLREQRILFLEQQIKELEKLKNQNSFMV , can you help?
Solution: 6.60
